Measured Target: HA of ca A/swine/Missouri/06 (H2N3) virus (influenza A virus)
Assay Notes: cell-based or functional assay
Documented Neutralization IC50, H2-MO06 across a set of binders
The answer is to be given in µg/mL; state only the numeric part.

Solved cases below.
>  <Binder>
Antibody 12 (antibody, V domains shown) VH: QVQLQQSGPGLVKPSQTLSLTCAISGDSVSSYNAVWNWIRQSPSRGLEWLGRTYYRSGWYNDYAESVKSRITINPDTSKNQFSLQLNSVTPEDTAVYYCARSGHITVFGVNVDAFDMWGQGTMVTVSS VL: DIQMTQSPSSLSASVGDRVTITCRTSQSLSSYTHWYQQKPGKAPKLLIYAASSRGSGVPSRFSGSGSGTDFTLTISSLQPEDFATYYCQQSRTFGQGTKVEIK

>  <Meas Value>
0.53

$$$$
>  <Binder>
Antibody 11 (antibody, V domains shown) VH: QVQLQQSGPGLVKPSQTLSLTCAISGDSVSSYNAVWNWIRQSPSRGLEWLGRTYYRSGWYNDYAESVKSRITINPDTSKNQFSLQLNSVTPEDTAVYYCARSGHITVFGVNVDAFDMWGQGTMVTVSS VL: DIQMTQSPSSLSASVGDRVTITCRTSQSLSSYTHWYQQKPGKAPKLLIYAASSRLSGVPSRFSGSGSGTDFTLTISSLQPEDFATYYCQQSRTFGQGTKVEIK

>  <Meas Value>
0.6

$$$$

Answer with the recorded Neutralization IC50, H2-MO06 for the binder listed here: Antibody 15 (antibody, V domains shown) VH: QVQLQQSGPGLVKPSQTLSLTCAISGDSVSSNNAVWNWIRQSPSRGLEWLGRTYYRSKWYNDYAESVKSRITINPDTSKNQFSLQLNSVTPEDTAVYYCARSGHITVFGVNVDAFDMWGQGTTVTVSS VL: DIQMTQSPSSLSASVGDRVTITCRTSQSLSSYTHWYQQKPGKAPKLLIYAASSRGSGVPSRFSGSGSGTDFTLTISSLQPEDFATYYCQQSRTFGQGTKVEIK
0.83

Supply Neutralization IC50, H2-MO06 value. Item: Antibody 14 (antibody, V domains shown) VH: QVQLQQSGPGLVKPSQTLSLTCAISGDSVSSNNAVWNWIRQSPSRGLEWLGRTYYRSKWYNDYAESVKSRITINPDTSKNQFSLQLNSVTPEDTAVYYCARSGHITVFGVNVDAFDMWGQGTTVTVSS VL: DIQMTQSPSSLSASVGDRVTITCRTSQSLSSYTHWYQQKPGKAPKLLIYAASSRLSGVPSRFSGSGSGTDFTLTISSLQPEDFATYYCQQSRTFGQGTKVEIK
0.65

Note down Neutralization IC50, H2-MO06 recorded for Antibody 13 (antibody, V domains shown) VH: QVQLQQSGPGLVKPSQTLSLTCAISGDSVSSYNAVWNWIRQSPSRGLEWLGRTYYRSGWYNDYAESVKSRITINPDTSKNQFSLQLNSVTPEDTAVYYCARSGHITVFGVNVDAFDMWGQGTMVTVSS VL: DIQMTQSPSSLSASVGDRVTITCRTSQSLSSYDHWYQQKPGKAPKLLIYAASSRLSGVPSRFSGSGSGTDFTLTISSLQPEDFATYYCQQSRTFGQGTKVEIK
0.57

Data provenance: patent US20200109188A1
